Sourced from patent US8658791B2

- System: barnyardgrass (Echinochloa crus-galli)
- testDetails: General preemergence herbicidal activity, ECHCG
- Assay type: in vivo
- conditionsUsed: 140 g ai/ha, applied to soil surface, visual score after 20-22 days, 0 = no injury, 100 = complete kill or no emergence, read-out: Pre-emergent Weed Control ECHCG
Assignment: determine reported pest or weed control at 140 g/ha for the given compounds.
Answer format: numeric, % implied, no suffix.

Specify pest or weed control at 140 g/ha for C=Cc1c(N)nc(-c2ccc(Cl)cc2)nc1C(=O)O and stop.
90

Specify pest or weed control at 140 g/ha for C=Cc1c(N)nc(-c2ccc(Cl)c(OC)c2)nc1C(=O)O and stop.
10

Specify pest or weed control at 140 g/ha for C=Cc1c(N)nc(-c2ccc(Cl)cc2F)nc1C(=O)O and stop.
30

Specify pest or weed control at 140 g/ha for CCc1c(N)nc(-c2ccc(Cl)c(OC)c2F)nc1C(=O)OC and stop.
0

Specify pest or weed control at 140 g/ha for C=Cc1c(N)nc(-c2ccc(Cl)c(C(C)F)c2F)nc1C(=O)OC (stereo not shown) and stop.
95

Specify pest or weed control at 140 g/ha for COc1c(Cl)ccc(-c2nc(N)c(C)c(C(=O)O)n2)c1F and stop.
80

Specify pest or weed control at 140 g/ha for C=Cc1c(N)cc(-c2ccc(Cl)c(OC)c2F)nc1C(=O)O and stop.
100

Specify pest or weed control at 140 g/ha for COC(=O)c1nc(-c2ccc(Cl)c(OC)c2F)nc(N)c1C and stop.
0

Specify pest or weed control at 140 g/ha for CCOC(=O)c1nc(C2CC2)nc(N)c1C and stop.
80

Specify pest or weed control at 140 g/ha for C=Cc1c(N)nc(-c2ccc(Cl)cc2F)nc1C(=O)OC and stop.
0
